# credit: PubChem BioAssay (Tox21)

# Potency annotations
Assay: qHTS RealTime-Glo MT Cell Viability Assay in HEK293 cells - 40 hour (AID 1224874); note: potency is the fitted concentration of half-maximal effect; nearly all actives have a fitted effect of over 50% in size
Settings: RealTime-Glo luminescence
Results filed as inconclusive are left out. Calls of active or inactive are those of the source. Calls come from the whole dose curve; as a rule, active = well fitted cell-killing curve with a large enough effect in the repeat runs; inconclusive = weak or mixed curves, or effect the other way; inactive = flat fitted curve, though single readings scatter.
measurement.kind: Potency

>>> observed_value("C[C@H]1CCC[C@H](O)CCCCCc2cc(O)cc(O)c2C(=O)O1")
"24.7 µM (active)"
>>> observed_value("Fc1ccc(C2(Cn3cncn3)OC2c2ccccc2Cl)cc1 (stereo unspecified)")
"27.5 µM (active)"
>>> observed_value("N#CC(CCc1ccc(Cl)cc1)(Cn1cncn1)c1ccccc1 (stereo unspecified)")
"17.4 µM (active)"
>>> observed_value("COc1cccc2c1cc([N+](=O)[O-])c1c(C(=O)O)cc3c(c12)OCO3")
"2.19 µM (active)"
>>> observed_value("CCCCc1ccc(O)cc1")
"15.5 µM (active)"
>>> observed_value("CCC(C)(C)c1cc(-n2nc3ccccc3n2)c(O)c(C(C)(C)CC)c1")
"22.2 µM (active)"
